System: HL-60 human leukemia cells
Assay: Growth inhibition of HL-60 leukemia cells (Example 3, Table 16)
Assay type: cell-based
Details: Homo sapiens, HL-60, 72 h, read-out: Growth inhibition (IC50), Day 3
Experimental: HL-60 leukemic cells were obtained from the American Type Culture Collection (Rockville, Md.) and were grown in suspension culture in RPMI 1640 supplemented with 10% heat-inactivated fetal bovine serum, streptomycin (500 μg/ml), penicillin (50 units/ml), and glutamine (1 mM) (Gibco, Grand Island, N.Y.). Cell counts were performed at desired times on a Coulter Counter. The IC50 values were determined from the dose- represent an average value obtained for each analogue […]
Reported IC50 values for a set of compounds
Use µM as the unit, but write only the number.

Before answering, review these 2 worked examples.
COMPOUND STRUCTURE STRING	IC50 [µM]
Nc1ncnc2c1nc(Cl)n2[C@@H]1O[C@@H]2CO[P@](O)(=S)O[C@H]2[C@H]1O	100
Nc1ncnc2c1nc(Cl)n2[C@@H]1O[C@@H]2CO[P@@](O)(=S)O[C@H]2[C@H]1O	16

Alright, here's another compound for you.
Query block: Query IC50 for `Nc1ncnc2c1nc(Br)n2[C@@H]1O[C@@H]2CO[P@](O)(=S)O[C@H]2[C@H]1O`
Result block: 28

* * *

Assay: Toxicity in non-tumor BDF1 mice (Table 6)
Format: in vivo, mouse
Conditions: mouse, in vivo; 22 mg/kg ip bolus; qd, day 1; read-out: Toxic deaths, No. killed/No. treated
MEASUREMENT LABEL: mortality (%)
Write it as a number; the unit % goes unstated.

Query block: Quickly give me recorded mortality for Nc1ncnc2c1nc(Cl)n2[C@@H]1O[C@@H]2COP(=O)(O)O[C@H]2[C@H]1O [8-Cl-cAMP-Na^+]
Result block: 0

* * *

System: Molt-4
Assay: Growth inhibition of leukemic cells (Table 12)
Format: cell-based, human
Details: Homo sapiens, MOLT-4; read-out: Inhibition of Growth IC50, Molt-4 (symbol)
pIC50: −log10 of the molar value.
MEASUREMENT LABEL: pIC50

Query block: Fill in reported pIC50 for this entry: CCCC(=O)Nc1ncnc2c1ncn2[C@@H]1O[C@@H]2COP(=O)(O)O[C@H]2[C@H]1OC(=O)CCC [DBcAMP, N^6, O^2' -dibutyryl-cAMP, reference compound]
Result block: < 3.00

* * *

Experiment: Toxicity in non-tumor BDF1 mice (Table 6)
Type: in vivo, mouse
Details: mouse, in vivo; 104 mg/kg ip bolus; qd, day 1; read-out: Toxic deaths, No. killed/No. treated
MEASUREMENT LABEL: mortality (%)
// note: answer is a bare numeric in %

Query block: Could you please provide reported mortality for `Nc1ncnc2c1nc(Cl)n2[C@@H]1O[C@@H]2COP(=O)(O)O[C@H]2[C@H]1O` ? Thanks!
Result block: 0
